Biological target: human liver GK (Homo sapiens)
Construct: GST (glutathione S-transferase) (N)
Sequence (P35557 1-466 isoform P35557-2): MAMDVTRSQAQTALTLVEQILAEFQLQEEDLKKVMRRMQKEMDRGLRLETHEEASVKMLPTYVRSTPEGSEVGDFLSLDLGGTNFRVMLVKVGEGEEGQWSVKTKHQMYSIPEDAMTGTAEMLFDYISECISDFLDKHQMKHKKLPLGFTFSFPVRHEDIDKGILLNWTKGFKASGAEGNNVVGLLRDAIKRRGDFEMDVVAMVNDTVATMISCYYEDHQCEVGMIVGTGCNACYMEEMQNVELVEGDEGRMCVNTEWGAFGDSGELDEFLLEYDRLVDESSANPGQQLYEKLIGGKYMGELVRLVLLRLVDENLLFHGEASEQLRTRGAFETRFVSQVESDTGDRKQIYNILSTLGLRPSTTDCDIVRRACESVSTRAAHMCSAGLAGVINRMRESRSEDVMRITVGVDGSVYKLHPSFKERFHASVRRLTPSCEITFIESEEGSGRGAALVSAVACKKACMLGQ
Assay: GK activation test
Details: test compound concentration needed to activate 50% of maximum activation ability; 4 mM 14C-labeled glucose, 2 mM ATP, room temperature, 20 minutes
Observation type: EC50

>>> result("CC(C)(C)c1ccc(/C(=C\\[C@H]2CCC(=O)N2)c2ccc(OC(F)F)c(=O)[nH]2)cc1 [Example 4-165]")
"10 to 500 nM"
>>> result("O=C1CC[C@H](/C=C(\\c2ccc(Cl)cc2)c2ccc(CCCCO)c(=O)[nH]2)N1 [Example 4-199]")
"500 to 3000 nM"
>>> result("Cc1ccc(C(CC2CCCC2)c2ccc(S(C)(=O)=O)c(Cl)c2)[nH]c1=O (centres unmarked) [Example 2-5]")
"500 to 3000 nM"
>>> result("CSc1ccc(/C(=C\\[C@H]2CCC(=O)N2)c2ccc(Cl)c(=O)[nH]2)cc1C(F)(F)F [Example 4-35]")
"500 to 3000 nM"
>>> result("O=c1[nH]c(/C(=C/C2CCCC2)c2ccc(CCCCO)cc2)ccc1C(F)(F)F [Example 1-38]")
"500 to 3000 nM"
>>> result("N#Cc1ccc(/C(=C\\[C@H]2CCC(=O)N2)c2ccc(C3CC3)c(=O)[nH]2)cc1 [Example 4-285]")
"500 to 3000 nM"
>>> result("O=C1CC[C@H](/C=C(\\c2ccc(Cl)c(C(F)(F)F)c2)c2ccc(C3CC3)c(=O)[nH]2)N1 [Example 4-105]")
"10 to 500 nM"
>>> result("CCc1ccc(/C(=C/[C@H]2CCC(=O)C2)c2ccc(SCCCO)c(Cl)c2)[nH]c1=O [Example 1-75]")
"10 to 500 nM"

----------
Biological target: human liver GK (Homo sapiens, UniProt P35557)
Construct: GST (glutathione S-transferase) (N)
Experiment: GK activation test
Details: test compound concentration needed to activate 50% of maximum activation ability; 4 mM 14C-labeled glucose, 2 mM ATP, room temperature, 20 minutes
Observation type: EC50

>>> result("O=C1CC[C@H](CC(c2ccc(S(=O)(=O)C3CC3)c(Cl)c2)c2ccc(C3CC3)c(=O)[nH]2)N1 (single isomer, unassigned) [Example 4-342]")
"10 to 500 nM"
>>> result("Cc1cc(/C(=C\\[C@H]2CCC(=O)N2)c2ccc(C3CC3)c(=O)[nH]2)ccc1C(F)(F)F")
"10 to 500 nM"
>>> result("CSc1ccc(/C(=C\\C2CCCC2)c2ccc(C)c(=O)[nH]2)cc1Cl")
"10 to 500 nM"
>>> result("CSc1ccc(C(CC2CCCC2)c2ccc(C)c(=O)[nH]2)cc1Cl (stereo not drawn)")
"500 to 3000 nM"
>>> result("CC(C)(C)c1ccc(/C(=C\\[C@H]2CCC(=O)N2)c2ccc(C(F)(F)F)c(=O)[nH]2)cc1")
"10 to 500 nM"
>>> result("CCOc1ccc(/C(=C\\[C@H]2CCC(=O)N2)c2ccc(C3CC3)c(=O)[nH]2)cc1Cl")
"10 to 500 nM"
>>> result("CC(C)Cc1ccc(/C(=C\\[C@H]2CCC(=O)N2)c2ccc(Cl)c(=O)[nH]2)cc1")
"500 to 3000 nM"
>>> result("CC(C)CCOc1ccc(/C(=C\\[C@H]2CCC(=O)N2)c2ccc(Cl)c(=O)[nH]2)cc1Cl")
"10 to 500 nM"
>>> result("Cc1c[nH]n(C/C=C(\\c2ccc(C(C)(C)C)cc2)c2ccc(Cl)c(=O)[nH]2)c1=O")
"500 to 3000 nM"
>>> result("O=C1CC[C@H](/C=C(\\c2ccc(SC3CCCC3)cc2)c2ccc(Cl)c(=O)[nH]2)N1")
"10 to 500 nM"
>>> result("O=c1[nH]c(/C(=C/C2CCCC2)c2ccc(S(=O)(=O)C3CC3)cc2)ccc1CO")
"10 to 500 nM"
>>> result("Cc1ccc(/C(=C/CC2CCCC2)c2ccc(SC3CC3)cc2)[nH]c1=O")
"10 to 500 nM"
>>> result("CN1CCN(S(=O)(=O)c2ccc(C(C[C@H]3CCC(=O)N3)c3ccc(Cl)c(=O)[nH]3)cc2)CC1 (stereo partly drawn)")
"3000 to 10000 nM"
>>> result("O=C1CC[C@H](/C=C(\\c2ccc(S(=O)(=O)C3CC3)c(Cl)c2)c2ccc(C3CC3)c(=O)[nH]2)N1")
"10 to 500 nM"
>>> result("Cc1ccc(C(C[C@H]2CCC(=O)N2)c2ccc(Cl)c(=O)[nH]2)cc1Cl (single isomer, unassigned) [Example 4-310]")
"500 to 3000 nM"

----------
Target: human liver GK (Homo sapiens)
Construct: GST (glutathione S-transferase) (N)
Assay: GK activation test
Settings: test compound concentration needed to activate 50% of maximum activation ability; 4 mM 14C-labeled glucose, 2 mM ATP, room temperature, 20 minutes
Observation type: EC50

>>> result("O=C1CC[C@H](CC(c2ccc(C(F)(F)F)c(F)c2)c2ccc(C3CC3)c(=O)[nH]2)N1 (single isomer, unassigned)")
"0.5 to 3 µM"
>>> result("Cc1cc(C(C[C@H]2CCC(=O)N2)c2ccc(C3CC3)c(=O)[nH]2)ccc1S(=O)(=O)C1CC1 (single isomer, unassigned) [Example 4-299]")
"3 to 10 µM"
>>> result("CC(C)(C)c1ccc(/C(=C\\[C@H]2CCC(=O)N2)c2ccc(Oc3ccccc3)c(=O)[nH]2)cc1")
"0.01 to 0.5 µM"
>>> result("CSc1ccc(C(CC2CCOCC2)c2ccc(C)c(=O)[nH]2)cc1 (stereo not shown)")
"3 to 10 µM"

----------
Target: human liver GK (Homo sapiens)
Construct: GST (glutathione S-transferase) (N)
Assay: GK activation test
Conditions: test compound concentration needed to activate 50% of maximum activation ability; 4 mM 14C-labeled glucose, 2 mM ATP, room temperature, 20 minutes
pEC50: −log10 of the molar value.
Observation type: pEC50

>>> result("CCc1ccc(C(C[C@H]2CCC(=O)N2)c2ccc(Cl)c(=O)[nH]2)cc1 (single isomer, unassigned) [Example 4-308]")
"5.52 to 6.30"
>>> result("COc1ccc(C(C[C@H]2CCC(=O)N2)c2ccc(C(C)(C)C)cc2)[nH]c1=O (single isomer, unassigned) [Example 4-244]")
"5.52 to 6.30"
>>> result("Cc1cc(/C(=C\\[C@H]2CCC(=O)N2)c2ccc(C3CC3)c(=O)[nH]2)ccc1S(=O)(=O)C1CC1 [Example 4-54]")
"6.30 to 8.00"

----------
Target: human liver GK (Homo sapiens, UniProt P35557)
Construct: GST (glutathione S-transferase) (N)
Assay: GK activation test
Details: test compound concentration needed to activate 50% of maximum activation ability; 4 mM 14C-labeled glucose, 2 mM ATP, room temperature, 20 minutes
pEC50: −log10 of the molar value.
Observation type: pEC50

>>> result("CC(C)(C)c1ccc(/C(=C\\[C@H]2CCC(=O)N2)c2ccc(Oc3ccc(Cl)cc3)c(=O)[nH]2)cc1 [Example 4-188]")
"5.52 to 6.30"
>>> result("CSc1ccc(/C(=C/[C@H]2CCC(=O)N2)c2ccc(C(C)(C)C)cc2)[nH]c1=O [Example 4-206]")
"6.30 to 8.00"
>>> result("O=C1CC[C@H](/C=C(\\c2ccc(C(F)(F)F)cc2)c2ccc(C3CC3)c(=O)[nH]2)N1 [Example 4-99]")
"6.30 to 8.00"
>>> result("CN1CCOc2cc(/C(=C\\[C@H]3CCC(=O)N3)c3ccc(Cl)c(=O)[nH]3)ccc21 [Example 4-79]")
"5.52 to 6.30"

----------
Target: human liver GK (Homo sapiens)
Construct: GST (glutathione S-transferase) (N)
Experiment: GK activation test
Conditions: test compound concentration needed to activate 50% of maximum activation ability; 4 mM 14C-labeled glucose, 2 mM ATP, room temperature, 20 minutes
Measured EC50, listed per entry for reference.
Observation type: EC50

>>> result("O=C1CC[C@H](CC(c2ccc(C3CC3)c(=O)[nH]2)c2ccc(Cl)cc2F)N1 (single isomer, unassigned) [Example 4-335]")
"3000 to 10000 nM"
>>> result("CS(=O)(=O)c1ccc(/C(=C\\C2CCCC2)c2ccc(Cl)c(=O)[nH]2)cc1")
"500 to 3000 nM"
>>> result("COc1cc(F)c(C(C[C@H]2CCC(=O)N2)c2ccc(C3CC3)c(=O)[nH]2)cc1Cl (single isomer, unassigned) [Example 4-346]")
"10 to 500 nM"
>>> result("O=C1CC[C@H](/C=C(\\c2ccc(OC3CC3)c(Cl)c2)c2ccc(C3CC3)c(=O)[nH]2)N1")
"10 to 500 nM"

Data origin: patent US8822503B2
